biological target: PKCι(h) (Homo sapiens, UniProt P41743); assay: Protein kinase selectivity panel; format: biochemical; settings: 1.0 μM compound, 10 μM ATP
Sequence (P41743 whole entry): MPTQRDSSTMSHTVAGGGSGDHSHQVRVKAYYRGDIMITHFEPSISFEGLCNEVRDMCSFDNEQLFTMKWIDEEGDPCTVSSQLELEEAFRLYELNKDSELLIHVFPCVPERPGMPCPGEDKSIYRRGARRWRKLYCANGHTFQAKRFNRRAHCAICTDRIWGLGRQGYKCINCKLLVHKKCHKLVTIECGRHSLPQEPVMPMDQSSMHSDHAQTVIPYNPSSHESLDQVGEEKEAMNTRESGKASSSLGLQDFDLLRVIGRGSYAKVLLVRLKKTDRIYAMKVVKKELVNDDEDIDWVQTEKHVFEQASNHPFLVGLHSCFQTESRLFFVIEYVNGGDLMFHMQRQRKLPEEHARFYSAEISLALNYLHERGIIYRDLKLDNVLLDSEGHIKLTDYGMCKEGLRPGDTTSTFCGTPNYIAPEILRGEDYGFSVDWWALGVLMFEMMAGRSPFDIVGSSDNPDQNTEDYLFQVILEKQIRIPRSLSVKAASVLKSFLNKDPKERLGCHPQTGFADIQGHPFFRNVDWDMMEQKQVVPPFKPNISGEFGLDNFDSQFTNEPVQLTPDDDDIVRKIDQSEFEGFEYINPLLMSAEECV
Activity at Protein Kinase Assays (% of control), PKCι(h) by entry:

Example entries begin here.
Request: Value lookup for Activity at Protein Kinase Assays (% of control), PKCι(h); key = O=C1NC(=O)C2=C1c1cn(c3ccccc13)CCCc1ccc(c(N3CCCC3)n1)CCCn1cc2c2ccccc21 [Cpd 7]
Result: 90 % of control

Request: Value lookup for Activity at Protein Kinase Assays (% of control), PKCι(h); key = CN(C)c1nc2ccc1CCCCn1cc(c3ccccc31)C1=C(C(=O)NC1=O)c1cn(c3ccccc13)CCC2 [Cpd 1]
Result: 104 % of control

Request: Value lookup for Activity at Protein Kinase Assays (% of control), PKCι(h); key = O=C1NC(=O)C2=C1c1cn(c3ccccc13)CCCc1cc(nc(N3CCCC3)c1)CCCn1cc2c2ccccc21 [Cpd 6]
Result: 121 % of control

Next:
Request: Value lookup for Activity at Protein Kinase Assays (% of control), PKCι(h); key = CN(C)c1cc2cc(n1)CCCn1cc(c3ccccc31)C1=C(C(=O)NC1=O)c1cn(c3ccccc13)CCC2 [Cpd 2]
Result: 117 % of control
